TARGET: EGFR del19/C797S (Homo sapiens, UniProt P00533, C797S/DEL746-750)
Sequence (P00533 with tags, fused parts or gaps DEL746-750/C797S): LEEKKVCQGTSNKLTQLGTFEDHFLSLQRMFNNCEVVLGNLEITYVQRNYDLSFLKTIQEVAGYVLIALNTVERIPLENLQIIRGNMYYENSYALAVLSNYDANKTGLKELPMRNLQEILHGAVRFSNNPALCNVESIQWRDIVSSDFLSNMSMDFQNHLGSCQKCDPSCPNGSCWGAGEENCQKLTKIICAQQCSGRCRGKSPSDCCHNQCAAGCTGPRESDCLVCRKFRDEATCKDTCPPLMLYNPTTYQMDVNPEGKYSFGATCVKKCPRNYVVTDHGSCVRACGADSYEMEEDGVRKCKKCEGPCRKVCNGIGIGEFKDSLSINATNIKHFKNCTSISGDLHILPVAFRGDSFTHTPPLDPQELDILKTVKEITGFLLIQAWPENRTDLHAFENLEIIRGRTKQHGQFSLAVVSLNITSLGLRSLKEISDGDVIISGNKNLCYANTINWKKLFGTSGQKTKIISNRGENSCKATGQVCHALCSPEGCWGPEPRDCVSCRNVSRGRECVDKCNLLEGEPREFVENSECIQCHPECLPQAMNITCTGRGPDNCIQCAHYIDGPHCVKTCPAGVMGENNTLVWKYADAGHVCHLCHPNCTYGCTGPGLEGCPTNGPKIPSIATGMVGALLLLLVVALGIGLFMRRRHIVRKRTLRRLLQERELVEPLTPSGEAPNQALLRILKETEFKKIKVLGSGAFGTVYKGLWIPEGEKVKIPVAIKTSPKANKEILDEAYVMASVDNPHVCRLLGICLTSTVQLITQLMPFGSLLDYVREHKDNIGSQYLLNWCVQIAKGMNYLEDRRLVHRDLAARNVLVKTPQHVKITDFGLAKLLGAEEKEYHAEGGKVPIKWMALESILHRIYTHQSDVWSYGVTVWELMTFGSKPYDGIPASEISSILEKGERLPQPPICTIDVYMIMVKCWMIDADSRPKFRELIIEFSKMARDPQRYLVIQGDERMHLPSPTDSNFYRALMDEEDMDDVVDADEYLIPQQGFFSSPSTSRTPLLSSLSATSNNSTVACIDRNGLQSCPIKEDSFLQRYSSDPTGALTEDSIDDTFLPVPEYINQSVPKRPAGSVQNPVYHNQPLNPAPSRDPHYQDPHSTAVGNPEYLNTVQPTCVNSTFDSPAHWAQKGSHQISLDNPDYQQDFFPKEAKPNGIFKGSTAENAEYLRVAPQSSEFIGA
RUN DESCRIPTION: Biochemical EGFR kinase assay (Lance Ultra TR-FRET), double mutant del19/C797S
MEASUREMENT SETUP: IC50 del19/C797S (nM) 100 μM ATP, 100 μM ATP

SMILES CODE: O=S(=O)(C1CC1)n1cc(-c2nccc(Nc3cc(N[C@H]4CC[C@@H](CO)CC4)c(-c4cc5n(n4)CCCC5)cn3)n2)cn1
READOUT UNITS: nM
IC50: 2.5
--
SMILES CODE: CN(C)C[C@]1(O)CC[C@@H](Nc2cc(Nc3ccnc(-c4cnn(S(=O)(=O)C5CC5)c4)n3)ncc2-c2ccn(C)n2)CC1
READOUT UNITS: nM
IC50: 6
--
SMILES CODE: Cn1nc(-c2cnc(Nc3ccnc(-c4cnn(S(=O)(=O)C5CC5)c4)n3)cc2NC[C@H]2CC[C@@H](O)C2)cc1C(F)(F)F
READOUT UNITS: nM
IC50: 77.9
--
SMILES CODE: CN(CC(F)F)C[C@H]1CC[C@@H](Nc2cc(Nc3ccnc(-c4cnn(S(=O)(=O)C5CC5)c4)n3)ncc2-c2ccn(CC(F)F)n2)CC1
READOUT UNITS: nM
IC50: 27.8
--
SMILES CODE: Cn1nc(-c2cnc(Nc3ccnc(-c4cnn(S(=O)(=O)C5CC5)c4)n3)cc2N[C@H]2CC[C@@H](CCO)CC2)cc1C(F)(F)F
READOUT UNITS: nM
IC50: 33.4
--
SMILES CODE: O=S(=O)(C1CC1)n1cc(-c2nccc(Nc3cc(NC[C@H]4CC[C@@H](O)CC4)c(-c4ccn(C(F)F)n4)cn3)n2)cn1
READOUT UNITS: nM
IC50: 2.2

---

TARGET: EGFR L858R/C797S (Homo sapiens, UniProt P00533, C797S/L858R)
Sequence (P00533 25-1210 C797S/L858R): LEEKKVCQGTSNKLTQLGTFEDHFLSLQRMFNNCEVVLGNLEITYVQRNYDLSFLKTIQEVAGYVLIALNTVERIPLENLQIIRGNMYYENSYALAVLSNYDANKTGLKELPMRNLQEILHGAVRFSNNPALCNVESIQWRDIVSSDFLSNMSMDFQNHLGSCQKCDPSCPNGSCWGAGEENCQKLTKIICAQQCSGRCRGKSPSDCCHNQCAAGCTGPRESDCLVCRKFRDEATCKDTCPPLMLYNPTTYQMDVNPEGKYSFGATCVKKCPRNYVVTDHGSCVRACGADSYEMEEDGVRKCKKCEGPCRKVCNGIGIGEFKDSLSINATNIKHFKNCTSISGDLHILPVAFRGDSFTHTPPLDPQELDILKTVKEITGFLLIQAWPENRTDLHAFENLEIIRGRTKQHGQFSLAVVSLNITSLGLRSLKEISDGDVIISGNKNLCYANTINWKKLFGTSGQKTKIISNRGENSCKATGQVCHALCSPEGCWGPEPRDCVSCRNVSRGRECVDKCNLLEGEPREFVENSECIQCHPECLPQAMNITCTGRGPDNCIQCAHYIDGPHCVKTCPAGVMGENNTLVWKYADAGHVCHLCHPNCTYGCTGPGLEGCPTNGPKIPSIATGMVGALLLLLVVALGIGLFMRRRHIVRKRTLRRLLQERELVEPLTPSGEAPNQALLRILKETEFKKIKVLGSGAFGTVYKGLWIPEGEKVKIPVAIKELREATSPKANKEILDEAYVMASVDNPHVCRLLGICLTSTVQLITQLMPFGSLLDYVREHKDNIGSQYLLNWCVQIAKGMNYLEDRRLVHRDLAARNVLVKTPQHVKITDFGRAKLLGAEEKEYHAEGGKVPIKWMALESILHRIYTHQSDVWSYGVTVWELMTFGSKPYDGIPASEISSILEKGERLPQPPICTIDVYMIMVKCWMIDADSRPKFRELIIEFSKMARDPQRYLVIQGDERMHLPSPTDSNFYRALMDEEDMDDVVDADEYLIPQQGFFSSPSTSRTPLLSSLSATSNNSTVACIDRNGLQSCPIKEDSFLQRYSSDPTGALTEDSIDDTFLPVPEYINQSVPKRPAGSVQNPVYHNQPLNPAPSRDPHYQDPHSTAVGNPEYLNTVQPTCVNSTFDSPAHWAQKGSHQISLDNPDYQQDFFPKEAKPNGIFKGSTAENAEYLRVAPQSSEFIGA
RUN DESCRIPTION: Biochemical EGFR kinase assay (Lance Ultra TR-FRET), double mutant L858R/C797S
MEASUREMENT SETUP: Km ATP; read-out: IC50 L858R/C797S (nM) Km ATP
Quick list: log10 of IC50 per entry.
QUANTITY NAME: log10 of IC50 (log10 of the value in nM)

COMPOUND: FC(F)Cn1cc(-c2nccc(Nc3cc(NC4CCCC(F)C4)c(-c4ccn(C(F)F)n4)cn3)n2)cn1 (centres unmarked)
log10 of IC50: 1.37
--
COMPOUND: CN(C)CC[C@H]1CC[C@@H](Nc2cc(Nc3ccnc(-c4cnn(S(=O)(=O)C5CC5)c4)n3)ncc2-c2ccn(C(F)F)n2)CC1
log10 of IC50: -1.00
--
COMPOUND: O=S(=O)(C1CC1)n1cc(-c2nccc(Nc3cc(N[C@H]4CC[C@@H](F)CC4)c(-c4nc(C(F)F)cs4)cn3)n2)cn1
log10 of IC50: 2.13
--
COMPOUND: Cn1cc(-c2nccc(Nc3cc(N[C@H]4CC[C@@](C)(O)CC4)c(-c4ccn(C(F)F)n4)cn3)n2)cn1
log10 of IC50: 1.76
--
COMPOUND: Cn1ccc(-c2cnc(Nc3ccnc(-c4cnn(S(=O)(=O)C5CC5)c4)n3)cc2NCC2(CO)COC2)n1
log10 of IC50: -0.05
--
COMPOUND: Cn1ccc(-c2cnc(Nc3ccnc(-c4cnn(S(=O)(=O)C5CC5)c4)n3)cc2NC[C@H]2C[C@H](CO)C2)n1
log10 of IC50: -0.15
--
COMPOUND: CC(C)(O)[C@H]1CC[C@@H](Nc2cc(Nc3ccnc(-c4cnn(S(=O)(=O)C5CC5)c4)n3)ncc2-c2ccn(CC(F)F)n2)CC1
log10 of IC50: 0.65
--
COMPOUND: O=S(=O)(C1CC1)n1cc(-c2nccc(Nc3cc(NC[C@H]4C[C@H](O)C4)c(-c4ccn(C(F)F)n4)cn3)n2)cn1
log10 of IC50: 0.30
--
COMPOUND: OCC[C@H]1CC[C@@H](Nc2cc(Nc3ccnc(-c4cnn(CC(F)F)c4)n3)ncc2-c2ccn(C(F)F)n2)CC1
log10 of IC50: 0.67
--
COMPOUND: O=S(=O)(C1CC1)n1cc(-c2nccc(Nc3cc(NC[C@H]4CC[C@@H](O)C4)c(-c4ccn(C(F)F)n4)cn3)n2)cn1
log10 of IC50: -0.40
--
COMPOUND: CCS(=O)(=O)n1ccc(-c2nccc(Nc3cc(N[C@H]4CC[C@@](C)(O)CC4)c(-c4ccn(C(F)F)n4)cn3)n2)n1
log10 of IC50: 1.63
--
COMPOUND: Cn1ccc(-c2cnc(Nc3ccnc(-c4cnn(S(=O)(=O)C5CC5)c4)n3)cc2NC[C@H]2CC[C@H](O)CC2)n1
log10 of IC50: -0.10
--
COMPOUND: O=S(=O)(C1CC1)n1cc(-c2nccc(Nc3cc(N[C@H]4CC[C@@H](NCC(F)F)CC4)c(-c4cc5n(n4)CCCC5)cn3)n2)cn1
log10 of IC50: 0.34
--
COMPOUND: CS(=O)(=O)c1ccn(-c2cnc(Nc3ccnc(-c4cnn(S(=O)(=O)C5CC5)c4)n3)cc2N[C@H]2CC[C@@](C)(O)CC2)n1
log10 of IC50: 1.57
--
COMPOUND: C[C@]1(F)CC[C@@H](Nc2cc(Nc3ccnc(-c4cnn(S(=O)(=O)C5CC5)c4)n3)ncc2-c2ccn(C(F)F)n2)CC1
log10 of IC50: 2.67
--
COMPOUND: O=S(=O)(C1CC1)n1cc(-c2ncc(F)c(Nc3cc(N[C@H]4CC[C@@H](CN5CCC5)CC4)c(-c4ccn(C(F)F)n4)cn3)n2)cn1
log10 of IC50: 0.45
--
COMPOUND: CN(C)CC1(C)CCC(Nc2cc(Nc3ccnc(-c4cnn(S(=O)(=O)C5CC5)c4)n3)ncc2-c2ccn(C)n2)CC1 (centres unmarked)
log10 of IC50: 0.85
--
COMPOUND: CS(=O)(=O)N1CCC(c2nccc(Nc3cc(N[C@H]4CC[C@@](C)(O)CC4)c(-c4ccn(C(F)F)n4)cn3)n2)CC1
log10 of IC50: 2.65
--
COMPOUND: CN(C)C[C@H]1C[C@H](CNc2cc(Nc3ccnc(-c4cnn(S(=O)(=O)C5CC5)c4)n3)ncc2-c2ccn(C)n2)C1
log10 of IC50: 0.56
--
COMPOUND: COCn1ccc(-c2cnc(Nc3ccnc(-c4cnn(S(=O)(=O)C5CC5)c4)n3)cc2N[C@H]2CC[C@@H](C(C)(C)O)CC2)n1
log10 of IC50: -0.30
--
COMPOUND: C[C@]1(O)CC[C@@H](Nc2cc(Nc3ccnc(-c4cnn(C(F)F)c4)n3)ncc2-c2ccn(C(F)F)n2)CC1
log10 of IC50: 1.67
--
COMPOUND: O=S(=O)(C1CC1)n1cc(-c2nccc(Nc3cc(N[C@H]4CC[C@H](CCO)CC4)c(-c4ccn(CC(F)(F)F)n4)cn3)n2)cn1
log10 of IC50: 1.05
--
COMPOUND: Cn1ccc(-c2cnc(Nc3ccnc(-c4cnn(S(=O)(=O)C5CC5)c4)n3)cc2N[C@H]2CC[C@](O)(CO)CC2)n1
log10 of IC50: 0.00
--
COMPOUND: O=S(=O)(C1CC1)n1cc(-c2nccc(Nc3cc(NC4CCN(CC(F)F)CC4)c(-c4ccn(C(F)F)n4)cn3)n2)cn1
log10 of IC50: 1.33
--
COMPOUND: C[C@]1(O)CC[C@@H](Nc2cc(Nc3ccnc(-c4cnn(S(=O)(=O)C5CC5)c4)n3)ncc2-c2ccn(C3CC3)n2)CC1
log10 of IC50: -0.52
--
COMPOUND: Cn1cc(-c2cnc(Nc3ccnc(-c4cnn(S(=O)(=O)C5CC5)c4)n3)cc2C#CC(C)(C)O)cn1
log10 of IC50: 1.88

---

List of IC50 values.
TARGET: EGFR del19/T790M/C797S (Homo sapiens, UniProt P00533, C797S/DEL746-750/T790M)
Sequence (P00533 with tags, fused parts or gaps DEL746-750/T790M/C797S): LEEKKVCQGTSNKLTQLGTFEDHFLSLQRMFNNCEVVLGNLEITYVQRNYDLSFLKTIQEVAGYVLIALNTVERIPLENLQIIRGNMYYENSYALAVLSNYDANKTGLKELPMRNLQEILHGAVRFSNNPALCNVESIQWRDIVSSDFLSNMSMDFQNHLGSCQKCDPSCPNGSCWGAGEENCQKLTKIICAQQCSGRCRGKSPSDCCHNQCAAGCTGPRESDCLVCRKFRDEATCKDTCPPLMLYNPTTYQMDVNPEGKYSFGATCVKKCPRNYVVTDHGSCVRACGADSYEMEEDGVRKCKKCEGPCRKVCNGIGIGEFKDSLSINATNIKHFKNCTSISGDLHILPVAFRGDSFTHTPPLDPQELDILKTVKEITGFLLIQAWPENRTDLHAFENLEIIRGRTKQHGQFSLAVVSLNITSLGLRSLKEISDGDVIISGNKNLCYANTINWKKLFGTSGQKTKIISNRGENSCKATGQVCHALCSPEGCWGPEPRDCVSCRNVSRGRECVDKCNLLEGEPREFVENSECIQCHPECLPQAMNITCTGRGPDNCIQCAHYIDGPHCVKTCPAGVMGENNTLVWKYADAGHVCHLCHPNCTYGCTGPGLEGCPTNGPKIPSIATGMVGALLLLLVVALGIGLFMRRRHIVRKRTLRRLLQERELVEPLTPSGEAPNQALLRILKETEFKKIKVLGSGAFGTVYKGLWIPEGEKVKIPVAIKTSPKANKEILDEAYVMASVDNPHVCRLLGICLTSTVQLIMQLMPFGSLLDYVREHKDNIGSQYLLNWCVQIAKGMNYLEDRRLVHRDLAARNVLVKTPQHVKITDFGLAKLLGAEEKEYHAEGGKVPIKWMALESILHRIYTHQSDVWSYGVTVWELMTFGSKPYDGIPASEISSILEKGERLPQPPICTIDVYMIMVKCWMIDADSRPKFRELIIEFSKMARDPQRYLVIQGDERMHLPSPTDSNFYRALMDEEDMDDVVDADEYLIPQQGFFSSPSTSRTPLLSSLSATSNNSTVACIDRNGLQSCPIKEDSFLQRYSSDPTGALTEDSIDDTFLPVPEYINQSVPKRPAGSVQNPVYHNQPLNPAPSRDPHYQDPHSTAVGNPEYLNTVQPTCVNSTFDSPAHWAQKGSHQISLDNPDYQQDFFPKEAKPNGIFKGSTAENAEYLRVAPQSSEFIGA
RUN DESCRIPTION: Biochemical EGFR kinase assay (Lance Ultra TR-FRET), triple mutant del19/T790M/C797S
MEASUREMENT SETUP: IC50 del19/T790M/C797S (nM) 100 μM ATP, 100 μM ATP

COMPOUND: C[C@]1(O)CC[C@@H](Nc2cc(Nc3ccnc(-c4cnn(S(=O)(=O)C5CC5)c4)n3)ncc2-c2csc(C(F)(F)F)n2)CC1
TARGET: EGFR del19/T790M/C797S (Homo sapiens, UniProt P00533, C797S/DEL746-750/T790M)
READOUT UNITS: nM
IC50: 2.4
//
COMPOUND: C[C@]1(O)CC[C@@H](Nc2cc(Nc3ccnc(-c4cnn(S(=O)(=O)C5CC5)c4)n3)ncc2-c2csc(N3CCOCC3)n2)CC1
TARGET: EGFR del19/T790M/C797S (Homo sapiens, UniProt P00533, C797S/DEL746-750/T790M)
READOUT UNITS: nM
IC50: 0.9
//
COMPOUND: O=S(=O)(C1CC1)n1cc(-c2nccc(Nc3cc(NC[C@H]4C[C@@H](O)C4)c(-c4ccn(C(F)F)n4)cn3)n2)cn1
TARGET: EGFR del19/T790M/C797S (Homo sapiens, UniProt P00533, C797S/DEL746-750/T790M)
READOUT UNITS: nM
IC50: 0.3
//
COMPOUND: C[C@]1(O)CC[C@@H](Nc2cc(Nc3nc(-c4cnn(S(=O)(=O)C5CC5)c4)ncc3F)ncc2-c2ccn(C(F)F)n2)CC1
TARGET: EGFR del19/T790M/C797S (Homo sapiens, UniProt P00533, C797S/DEL746-750/T790M)
READOUT UNITS: nM
IC50: 0.7
//
COMPOUND: O=S(=O)(C1CC1)n1cc(-c2nccc(Nc3cc(NC4CCCCC4O)c(-c4ccn(C(F)F)n4)cn3)n2)cn1 (stereo not shown)
TARGET: EGFR del19/T790M/C797S (Homo sapiens, UniProt P00533, C797S/DEL746-750/T790M)
READOUT UNITS: nM
IC50: 1.1
//
COMPOUND: O=S(=O)(C1CC1)n1cc(-c2nccc(Nc3cc(NC[C@H]4CC[C@@H](O)CC4)c(-c4ccn(C(F)F)n4)cn3)n2)cn1
TARGET: EGFR del19/T790M/C797S (Homo sapiens, UniProt P00533, C797S/DEL746-750/T790M)
READOUT UNITS: nM
IC50: 2.4
//
COMPOUND: O=S(=O)(C1CC1)n1cc(-c2nccc(Nc3cc(N[C@H]4CC[C@@H](CCO)CC4)c(-c4ccn(CC(F)(F)F)n4)cn3)n2)cn1
TARGET: EGFR del19/T790M/C797S (Homo sapiens, UniProt P00533, C797S/DEL746-750/T790M)
READOUT UNITS: nM
IC50: 1.3
//
COMPOUND: CN(CC(F)F)C(=O)[C@H]1CC[C@@H](Nc2cc(Nc3ccnc(-c4cnn(S(=O)(=O)C5CC5)c4)n3)ncc2-c2ccn(C(F)F)n2)CC1
TARGET: EGFR del19/T790M/C797S (Homo sapiens, UniProt P00533, C797S/DEL746-750/T790M)
READOUT UNITS: nM
IC50: 0.9
//
COMPOUND: CN[C@H]1CC[C@@H](Oc2cc(Nc3ccnc(-c4cnn(S(=O)(=O)C5CC5)c4)n3)ncc2-c2ccn(C(F)F)n2)CC1
TARGET: EGFR del19/T790M/C797S (Homo sapiens, UniProt P00533, C797S/DEL746-750/T790M)
READOUT UNITS: nM
IC50: 1.2
//
COMPOUND: CC1(O)CCC(Oc2cc(Nc3ccnc(-c4cnn(S(=O)(=O)C5CC5)c4)n3)ncc2-c2ccn(C(F)F)n2)CC1 (stereo not shown)
TARGET: EGFR del19/T790M/C797S (Homo sapiens, UniProt P00533, C797S/DEL746-750/T790M)
READOUT UNITS: nM
IC50: 0.6
//
COMPOUND: CCS(=O)(=O)n1ccc(-c2nccc(Nc3cc(N[C@H]4CC[C@@](C)(O)CC4)c(-c4ccn(C(F)F)n4)cn3)n2)n1
TARGET: EGFR del19/T790M/C797S (Homo sapiens, UniProt P00533, C797S/DEL746-750/T790M)
READOUT UNITS: nM
IC50: 3.8
//
COMPOUND: CN(C)C[C@H]1CC[C@@H](Nc2cc(Nc3ccnc(-c4cnn(S(=O)(=O)C5CC5)c4)n3)ncc2-c2cc(C(C)(C)O)n(C)n2)CC1
TARGET: EGFR del19/T790M/C797S (Homo sapiens, UniProt P00533, C797S/DEL746-750/T790M)
READOUT UNITS: nM
IC50: 0.4
//
COMPOUND: C[C@]1(O)CC[C@@H](Nc2cc(Nc3ccnc(-c4cnn(C5CC5)c4)n3)ncc2-c2ccn(C(F)F)n2)CC1
TARGET: EGFR del19/T790M/C797S (Homo sapiens, UniProt P00533, C797S/DEL746-750/T790M)
READOUT UNITS: nM
IC50: 3.7
